- assay.info: chemical genetic growth profiling, strain panel (AID 1159580);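 note: tested at 20 µM; growth read once vehicle control cultures reached saturation at 30 °C; 1 = growth at the plate median or of vehicle wells; lower values mean less growth of the strain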
- condition.description: S. cerevisiae deletion strains, growth OD, locus YAL030W, strain snc1, active compounds read low
In all, about 5,500 compounds went through this assay and about 2,000 (36%) were called active. Roughly 18% stayed inconclusive and do not appear here. The list shows a part of the results.
reported.endpoint: normalized growth

1) O=C(c1ccc(OCCN2CCCCC2)cc1)c1c(-c2ccc(O)cc2)sc2cc(O)ccc12 | 1.01
2) CCCCNC(=O)NS(=O)(=O)c1ccc(C)cc1 | 1.02
3) COc1ccc(-c2coc3cc(O)ccc3c2=O)c(OC)c1 | 1
4) NCCc1cnc[nH]1 | 1.01
5) OCC(O)CN1CCN(c2ccccc2)CC1 (stereo unspecified) | 0.996
6) C[C@H]1COc2c(N3CCN(C)CC3)c(F)cc3c(=O)c(C(=O)O)cn1c23 | 1.02
7) O=C(Oc1cc(O)cc2c1C[C@@H](OC(=O)c1cc(O)c(O)c(O)c1)[C@@H](c1cc(O)c(O)c(O)c1)O2)c1cc(O)c(O)c(O)c1 | 1.01
8) C[C@@H]1CC(Cl)CC[C@H]1C(=O)OC(C)(C)C (stereo partly specified) | 0.982
9) CC(=O)Oc1cc(OC(C)=O)c2c(c1)O[C@H](c1ccc(OC(C)=O)c(OC(C)=O)c1)[C@@H](OC(C)=O)C2 | 1
10) O=C(/C=C/c1ccc(O)c(O)c1)OC(Cc1ccc(O)c(O)c1)C(=O)O (stereo unspecified) | 1.01
11) CNC(=O)O/N=C(\C)SC | 1.01
12) CN1CC(=O)N=C1N | 1.02
13) CC#CC1(O)CCC2C3CCC4=CC(=O)CCC4=C3C(c3ccc(N(C)C)cc3)CC21C (stereo unspecified) | 0.989
14) COc1cc(CNC(=O)CCCC/C=C/C(C)C)ccc1O | 0.987
15) COc1ccc(C(=O)CC(=O)O)c2c1C=CC(C)(C)O2 | 0.992
16) O=C1NCC2(CCN(CCc3ccccc3)CC2)O1 | 1
17) C=CCc1ccc(OC)cc1 | 1
18) COc1ccc(C(=O)O)cc1OC | 0.995
19) CCn1cc(C(=O)O)c(=O)c2cc(F)c(N3CCNCC3)nc21 | 0.982
20) C=CC[C@]1(O)CCC2C3CCC4=CC(=O)CCC4=C3C=C[C@@]21C (stereo partly specified) | 0.994
21) CC1CCc2cc(F)cc3c(=O)c(C(=O)O)cn1c23 (stereo unspecified) | 0.989
22) O=C(O)/C=C/c1ccc(O)c(O)c1 | 1
23) Cc1[nH]c2ccccc2c1CN(C)C | 1.02
24) CCCCCCCCC(=O)NCc1ccc(O)c(OC)c1 | 1
25) Cn1c(=O)c2c(ncn2CC(O)CO)n(C)c1=O (stereo unspecified) | 0.989
26) COc1ccc2c(c1)OC/C(=C/c1ccc(OC)c(OC)c1)C2=O | 0.986
27) CCC[C@H](N[C@@H](C)C(=O)N1[C@H](C(=O)O)C[C@@H]2CCCC[C@@H]21)C(=O)OCC | 1.02
28) COC(=O)[C@@H]1OC(=O)C2OC23[C@@]1(C)CCC1[C@]2(C)C(C[C@H](O)[C@]13C)C(C)(C)[C@H](OC(C)=O)C[C@@H]2OC(C)=O (stereo partly specified) | 1.01
29) C#CCN(C)Cc1ccccc1 | 0.999
30) COc1ccc(C2CNC(=O)C2)cc1OC1CCCC1 (stereo unspecified) | 1.02
31) CC1(C)S[C@@H]2[C@H](NC(=O)[C@H](N)c3ccccc3)C(=O)N2[C@H]1C(=O)O | 0.987
32) C=C1C2CC[C@@]3(C)[C@H](c4ccoc4)OC(=O)C[C@]13O[C@H]1CC(=O)C(C)(C)[C@H](C(OC(C)=O)C(=O)OC)[C@@]21C (stereo partly specified) | 1
33) CO/N=C1/CN(c2nc3c(cc2F)c(=O)c(C(=O)O)cn3C2CC2)CC1CN (stereo unspecified) | 0.992
34) CCCCCCCCCCCCCc1ccco1 | 0.991
35) c1ccc2c(c1)CCCC2C1=NCCN1 (stereo unspecified) | 1.02
36) N=c1ccn2c(n1)OC1C(O)C(CO)OC12 (stereo unspecified) | 0.991
